- Tested on: SK-MEL-2
- measurementDescription: NCI tumour cell line growth inhibition, 48 h
Activity calls are given as the source filed them. Rule as the data show it: active = GI50 up to about 1.1 µM and inactive = higher.

compound: CC(=O)O[C@@H]1[C@@H](O)C2=C3[C@]4(C)[C@@H]1C(C)(C)C(=O)C[C@@H]4[C@]3(O)[C@H](OC(C)=O)[C@@]1(C[C@@H]1C)C2=O
targetOfAssay: SK-MEL-2
GI50: 25.6 µM (inactive)
--
compound: Cc1ccccc1NC(=O)C1C(=O)N(c2ccccc2C)C(=O)/C1=N\NC(N)=S (centres undefined)
targetOfAssay: SK-MEL-2
GI50: > 100 µM (inactive)
--
compound: CCOC(=O)NC(=O)c1cn(CCN(CCO)C(=O)NCCCCCCNC(=O)N(CCO)CCn2cc(C(=O)NC(=O)OCC)c(=O)[nH]c2=O)c(=O)[nH]c1=O
targetOfAssay: SK-MEL-2
GI50: > 100 µM (inactive)
--
compound: Cc1cc(-n2nnc(C(=O)O)c2-c2ccccc2)c2ccc(Cl)cc2n1
targetOfAssay: SK-MEL-2
GI50: > 100 µM (inactive)

* * *

- Tested on: LOX IMVI
- measurementDescription: NCI tumour cell line growth inhibition, 48 h
Calls of active or inactive are those of the source. Cut-off read from the data, not from the text of the source: active = GI50 up to about 1.1 µM and inactive = higher.
Classes used: active, inactive

molecule: CC(=O)c1c2c(cc3c1CC1(C3)Cc3cc4c(c(C(=O)O)c3C1)CCC4)CCC2 (stereo not given)
targetOfAssay: LOX IMVI
classAssignment: inactive
//
molecule: CC1C(=O)OC2CC[N+]3([O-])CC=C(COC(=O)C(C)(O)C1(C)O)C23 (stereo not given)
targetOfAssay: LOX IMVI
classAssignment: inactive
//
molecule: COc1ccc2nc3c(C(=O)NCCN(C)C)cccc3nc2c1
targetOfAssay: LOX IMVI
classAssignment: inactive
//
molecule: CN1C(=O)N(C)C(N2CCCC2)c2c1nc1ccccn1c2=O (stereo not given)
targetOfAssay: LOX IMVI
classAssignment: inactive
//
molecule: CC(C)C[C@H](NC(=O)[C@H](Cc1ccc(F)cc1)NC(=O)c1ccccn1)B(O)O
targetOfAssay: LOX IMVI
classAssignment: active
//
molecule: COc1ccc(C(=O)Cc2ccc(Br)cc2)cc1OC
targetOfAssay: LOX IMVI
classAssignment: inactive
//
molecule: O=C1C=CC(=O)c2c1ccc1c3ccccc3n(CCCCCn3c4ccccc4c4ccc5c(c43)C(=O)C=CC5=O)c21
targetOfAssay: LOX IMVI
classAssignment: inactive
//
molecule: O=c1onc2n1-c1ccc(Cl)cc1C(=S)N1CSCC21 (stereo not given)
targetOfAssay: LOX IMVI
classAssignment: inactive
//
molecule: S=c1sc2c(s1)SCCCCSCCCCSc1sc(=S)sc1SCCCCSCCCCS2
targetOfAssay: LOX IMVI
classAssignment: inactive
//
molecule: Nc1nc(-c2ccccc2)c(Cl)c(-c2cc(Cl)ccc2O)n1
targetOfAssay: LOX IMVI
classAssignment: inactive

* * *

- System: Hs-578T
- measurementDescription: NCI tumour cell line growth inhibition, 48 h
Active and inactive are the calls of the source. No stated cut-off is given here; in the data, active = GI50 up to about 1.1 µM and inactive = higher.
Outcome codes: TRUE = active, FALSE = inactive

compound: CCC/N=C(/NC(=O)c1ccc(Cl)cc1)SC
targetOfAssay: Hs-578T
classAssignment: FALSE
--
compound: COC(=O)[C@H](Cc1ccccc1)NC(=O)NCCN(CCNC(=O)N[C@@H](Cc1ccccc1)C(=O)OC)C(=O)N[C@@H](Cc1ccccc1)C(=O)OC
targetOfAssay: Hs-578T
classAssignment: FALSE
--
compound: O=C1C(=C(C(F)(F)Cl)C(F)(F)Cl)C2CCC1C2 (stereo not drawn)
targetOfAssay: Hs-578T
classAssignment: FALSE
--
compound: ClC(Cl)(Cl)C(N1CCN(c2ccccc2)CC1)N1CCN(c2ccccc2)CC1
targetOfAssay: Hs-578T
classAssignment: FALSE
--
compound: O=C(Nc1ccccc1)c1cc2c(cc1Cl)SC(NNCCO)=NS2(=O)=O
targetOfAssay: Hs-578T
classAssignment: FALSE
--
compound: N[C@H]1c2c(Br)sc(Br)c2C(=O)[C@H]1O
targetOfAssay: Hs-578T
classAssignment: FALSE
--
compound: COc1ccccc1/C=C1\Sc2scc(-c3ccc(O)c(O)c3)[n+]2C1=O
targetOfAssay: Hs-578T
classAssignment: FALSE
--
compound: CCC1(c2ccc(N3C(=O)c4cccc5cc([N+](=O)[O-])cc(c45)C3=O)cc2)CCC(=O)NC1=O (stereo not drawn)
targetOfAssay: Hs-578T
classAssignment: FALSE
--
compound: CC(C)(Oc1ccc(C2C[C@H]2Cl)cc1)C(=O)O (stereo partly drawn)
targetOfAssay: Hs-578T
classAssignment: FALSE
--
compound: COC(C(=O)C(O)C(C)O)C1CC2C=C3C=C(OC4CC(OC5CC(O)C(OC)C(C)O5)C(OC(C)=O)C(C)O4)C(C)C(O)=C3C(O)=C2C(=O)C1OC1CC(OC2CC(OC3CC(C)(O)C(OC(=O)C(C)C)C(C)O3)C(O)C(C)O2)C(O)C(C)O1 (stereo not drawn)
targetOfAssay: Hs-578T
classAssignment: TRUE
--
compound: COC(=O)[C@](NC(=O)OCc1ccccc1)([C@@H](C)[S+]([O-])c1ccc(C)cc1)C(F)(F)F (stereo partly drawn)
targetOfAssay: Hs-578T
classAssignment: FALSE
--
compound: CN(C)CCNc1nc2c(no[n+]2[O-])c2ccccc12.[O-][Cl+3]([O-])([O-])O
targetOfAssay: Hs-578T
classAssignment: FALSE
--
compound: COc1ccc(-n2c(N)c(C#N)c(C#N)c2-c2ccccc2)cc1
targetOfAssay: Hs-578T
classAssignment: FALSE
--
compound: NC1CCCCC1.O=C(CP(=O)(O)O)NC(CC(=O)OCc1ccccc1)C(=O)OCc1ccccc1 (stereo not drawn)
targetOfAssay: Hs-578T
classAssignment: FALSE
--
compound: CCOC(=O)c1c(-c2ccc(Cl)cc2)c(C#N)c(=S)n(C2OC(CO)C(O)C(O)C2O)c1-c1ccccc1 (stereo not drawn)
targetOfAssay: Hs-578T
classAssignment: FALSE
--
compound: Cc1nc(-c2cc3cc([N+](=O)[O-])ccc3oc2=O)cs1
targetOfAssay: Hs-578T
classAssignment: FALSE
--
compound: Cc1ccc(S(=O)ON2CCC(C(=O)O)(c3ccccc3)CC2)cc1 (stereo not drawn)
targetOfAssay: Hs-578T
classAssignment: FALSE
--
compound: Cn1c(=O)c2c(nc3n(Cc4ccccc4)c(=O)c(NCCBr)cn23)n(C)c1=O
targetOfAssay: Hs-578T
classAssignment: FALSE

* * *

- Test system: MOLT-4
- measurementDescription: NCI tumour cell line growth inhibition, 48 h
The source made the active and inactive calls. No stated cut-off is given here; in the data, active = GI50 up to about 1.1 µM and inactive = higher.
metric: GI50

compound: COC(=O)[C@H](Cc1ccccc1)NC(=O)NCCN(CCNC(=O)N[C@@H](Cc1ccccc1)C(=O)OC)C(=O)N[C@@H](Cc1ccccc1)C(=O)OC
metric: GI50
measuredResult: 20.2 µM (inactive)
//
compound: O=C(O)CCCOc1cc(-c2ccccc2F)nc2cc3c(cc12)OCO3
metric: GI50
measuredResult: 5.9 µM (inactive)
//
compound: O=C(N/N=C\c1cccc2ccccc12)Nc1ccccc1
metric: GI50
measuredResult: > 100 µM (inactive)
//
compound: O=C1CCCCCCCCCCC1CN1CCCCC1 (stereo not given)
metric: GI50
measuredResult: 57 µM (inactive)
//
compound: CCCCN(C)C(=O)C1=C(C)NC(C)=C(C(=O)N(C)CCCC)C1
metric: GI50
measuredResult: > 100 µM (inactive)

* * *

Collected GI50 values appear next to each entry.
- Tested on: UACC-257
- measurementDescription: NCI tumour cell line growth inhibition, 48 h
Activity calls are given as the source filed them. Cut-off read from the data, not from the text of the source: active = GI50 up to about 1.1 µM and inactive = higher.
metric: GI50

compound: CC(Oc1ccc(OCC2CCCCC2)cc1)C(=O)NCc1ccco1 (configuration not stated)
measuredResult: 23.6 µM (inactive)
//
compound: COC(=O)C(=O)Cc1nc2ccccc2s1
measuredResult: > 100 µM (inactive)
//
compound: Cn1c(=O)c2c(nc3n(Cc4ccccc4)c(=O)c(NCCBr)cn23)n(C)c1=O
measuredResult: 25.7 µM (inactive)
//
compound: CCC/N=C(/NC(=O)c1ccc(Cl)cc1)SC
measuredResult: 74.5 µM (inactive)
//
compound: CN(C)C(=N)NC(=S)N(C)C
measuredResult: > 100 µM (inactive)
//
compound: c1ccc2cc(NCNc3ccc4ccccc4c3)ccc2c1
measuredResult: 8.73 µM (inactive)
//
compound: CCc1n[nH]c(=O)n1CCO
measuredResult: > 100 µM (inactive)

* * *

- System: SF-295
- measurementDescription: NCI tumour cell line growth inhibition, 48 h
Activity calls are given as the source filed them. No stated cut-off is given here; in the data, active = GI50 up to about 1.1 µM and inactive = higher.

compound: Cc1cc(O)c(C(=O)O)c2c1C(=O)c1c(O)c(OCC(O)C(O)C(O)C(O)CO)c(O)c(O)c1C2=O.NCCNCCO (stereo not given)
GI50: > 100 µM (inactive)
//
compound: CC(=O)O[C@@H]1[C@@H](O)C2=C3[C@]4(C)[C@@H]1C(C)(C)C(=O)C[C@@H]4[C@]3(O)[C@H](OC(C)=O)[C@@]1(C[C@@H]1C)C2=O
GI50: 20.7 µM (inactive)
//
compound: COC(=O)C(=O)Cc1nc2ccccc2s1
GI50: > 100 µM (inactive)
//
compound: O=C1c2c(O)cc(O)cc2OC(c2ccc(O)cc2O)C1O (stereo not given)
GI50: 56.4 µM (inactive)
//
compound: O=C1C=CC(S(=O)(=O)C2=C/C(=C/Nc3ccc(Cl)cc3)C(=O)C=C2)=C/C1=C/Nc1ccc(Cl)cc1
GI50: > 100 µM (inactive)
